- System: Murine B16(F10) melanoma cells
- test name: IC50 determinations: net increase in 48 hour melanoma cell count
- Type: cell-based
- condition: 48 hour incubation; means ± SD; read-out: IC50: concentration required to suppress the increase in the population of melanoma cells by 50% during a 48 hour incubation
endpoint name: IC50 (µM)

Report IC50, nothing else, for this compound: CC(C)=CCC/C(C)=C/CO [Geraniol, trans 3,7-dimethyl-2,6-octadien-1-ol]
150

P = CC(C)=CCC/C(C)=C/CC/C(C)=C/CO
Q = CC(C)=CCCC(C)=CCCC(C)=CCCC1(C)CCc2cc(O)cc(C)c2O1 (centres unmarked)
Name the one with the greater IC50 value, either P or Q as given. Please reply using the label of the selected record.
P

----------
- Test system: Murine B16(F10) melanoma cells
- test name: IC50 determinations: net increase in 48 hour melanoma cell count
- Assay type: cell-based
- condition: 48 hour incubation; means ± SD; read-out: IC50: concentration required to suppress the increase in the population of melanoma cells by 50% during a 48 hour incubation
pIC50: −log10 of the molar value.
endpoint name: pIC50

Report its pIC50 with Murine B16(F10) melanoma cells as the test system: C=C(C)[C@H]1CC=C(C)CC1 [d-Limonene, [R]4-isopropenyl-1-methyl-1-cyclohexene]
3.35

Report its pIC50 with Murine B16(F10) melanoma cells as the test system: C=C(C)[C@@H]1CC=C(CO)CC1 [Perillyl alcohol, [R]4-isopropenyl-1-methanol-cyclohexene]
3.60

P = CC(C)=CCCC(C)=CCCC(C)=CCCC1CCc2cc(O)ccc2O1 (stereo not shown)
Q = CC(C)=CCCC(C)=CCCC(C)=CCCC1(C)CCc2c(C)c(O)c(C)c(C)c2O1 (stereo not shown)
Just tell me: smaller pIC50 value, P or Q ? Please reply using the label of the selected record.
Q
(Q: 3.96, P: 6.05)

Data provenance: patent US6441029B1
